run description: Inhibition of tRNA-methyltransferase (unknown origin) using 0.1 mM SAM and 40 ug tRNA as substrate by Dixon plot analysis
Set-up: species or system Homo sapiens
Hi there, I'd appreciate the recorded pKi for every entry that follows.
Give bare numbers, as −log10 of the molar value.

INSERT INTO assay_data (compound, measurement) VALUES
  ('Nc1ncnc2c1ncn2[C@@H]1O[C@H](CSCC[C@H](N)C(=O)O)[C@@H](O)[C@H]1O', 4.60);

Prompt: Item Nc1ncnc2c1ncn2[C@@H]1O[C@H](CNCCC(N)C(=O)O)[C@@H](O)[C@H]1O (some centres not stated) has what recorded pKi?
Response: 3.46

These measurements were taken from ChEMBL document CHEMBL3272009.
